Measured inhibition of SARS-CoV-2 cytopathic effect of individual entries
- Test system: Vero E6 infected with SARS-CoV-2
- methodDescription: inhibition of SARS-CoV-2 cytopathic effect; higher = more antiviral protection, active = above 15
- conditionLabel: 833.33 nM; 48 h
Record the value in %, omitting the unit from your answer.

Examples with their reported inhibition of SARS-CoV-2 cytopathic effect follow.
compound	numericValue
O=C(O)[C@H](O)c1ccccc1 [mandelic-acid]	2.65
COCCOc1cnc2ccn([C@H](C)c3nnc4c(F)cc(-c5cnn(C)c5)cn34)c(=O)c2c1	-0.75
COc1ccccc1C1(O)CCN(CCCn2c3ccccc3c3ccccc32)CC1	1.69

Entry Nc1nc(OCC2CCCCC2)c2nc[nH]c2n1 — recorded inhibition of SARS-CoV-2 cytopathic effect = 1.35

So, C[C@]12CCC(=O)C=C1CC[C@@H]1[C@@H]2[C@@H](O)C[C@@]2(C)[C@H]1CC[C@]2(O)C(=O)CO [hydrocortisone] ? Its inhibition of SARS-CoV-2 cytopathic effect was -4.8

Short answer for N[C@@H](CSS(=O)(=O)O)C(=O)O [S-sulfo-L-cysteine] : inhibition of SARS-CoV-2 cytopathic effect was 1.93

For reference, reported inhibition of SARS-CoV-2 cytopathic effect for CC(=O)OCC(=O)[C@@]12N=C(C)O[C@@H]1C[C@H]1[C@@H]3CCC4=CC(=O)C=C[C@]4(C)[C@H]3[C@@H](O)C[C@@]12C [Deflazacort (Calcort)] stands at 2.17

For reference, reported inhibition of SARS-CoV-2 cytopathic effect for Cc1sc2c(c1C)C(c1ccc(Cl)cc1)=N[C@@H](CC(=O)Nc1ccc(O)cc1)c1nnc(C)n1-2 stands at -3.68
